molecular target: Beta-1 adrenergic receptor (Homo sapiens) (UniProt P08588); experiment: Inhibition of human recombinant beta1 receptor at 10 uM by radioligand binding assay
Sequence (P08588 whole entry, looked up): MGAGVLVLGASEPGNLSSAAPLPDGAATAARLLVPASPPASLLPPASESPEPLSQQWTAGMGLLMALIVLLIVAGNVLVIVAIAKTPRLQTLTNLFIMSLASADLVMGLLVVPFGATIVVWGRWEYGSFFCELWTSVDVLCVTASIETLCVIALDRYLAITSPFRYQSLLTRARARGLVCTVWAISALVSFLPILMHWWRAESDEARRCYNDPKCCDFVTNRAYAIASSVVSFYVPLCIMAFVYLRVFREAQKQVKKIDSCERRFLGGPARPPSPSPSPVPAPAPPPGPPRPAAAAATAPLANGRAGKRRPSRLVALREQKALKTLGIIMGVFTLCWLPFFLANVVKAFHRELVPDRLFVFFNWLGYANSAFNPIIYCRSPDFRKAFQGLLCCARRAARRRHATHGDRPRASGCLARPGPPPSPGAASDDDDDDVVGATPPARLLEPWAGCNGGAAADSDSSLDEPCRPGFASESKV
The source made the active and inactive calls. The rule behind the calls is not given here.
Pick one: YES = active, NO = inactive

Use these answered entries as a reference point.
SUBSTANCE SMILES | TARGET SYSTEM | GROUP LABEL
Cc1cc(C(N)=O)ccc1-n1c(CCC(=O)O)ccc1-c1ccc(-n2ccnc2)cc1 | Beta-1 adrenergic receptor (Homo sapiens) (UniProt P08588) | NO
COc1ccc(-c2ccn(-c3ccc(C(=O)O)c(O)c3)c2-c2ccc(C(N)=O)cc2C)cc1 | Beta-1 adrenergic receptor (Homo sapiens) (UniProt P08588) | YES
Cc1cc(C(N)=O)ccc1-c1c(CCC(=O)O)ccn1-c1ccc(-n2ccnc2)cc1 | Beta-1 adrenergic receptor (Homo sapiens) (UniProt P08588) | NO

q: State the result this test recorded for Cc1cc(C(N)=O)ccc1-c1c(-c2ccc(-n3ccnc3)cc2)ccn1CCC(=O)O .
a: NO

q: State the result this test recorded for COc1ccc(-c2ccn(-c3ccc(O)c([N+](=O)[O-])c3)c2-c2ccc(C(N)=O)cc2C)cc1 .
a: YES

====

biological target: Melanocortin receptor 4 (Homo sapiens); assay: Inhibition of human recombinant MC4 receptor at 10 uM by radioligand binding assay
Active and inactive are the calls of the source. The calls are words filed in the database; no cut-off is given here.
Pick one: active, inactive

SUBSTANCE SMILES | TARGET SYSTEM | GROUP LABEL
COc1ccc(-c2ccn(-c3ccc(C(=O)O)c(O)c3)c2-c2ccc(C(N)=O)cc2C)cc1 | Melanocortin receptor 4 (Homo sapiens) | active
COc1ccc(-c2ccn(-c3ccc(O)c([N+](=O)[O-])c3)c2-c2ccc(C(N)=O)cc2C)cc1 | Melanocortin receptor 4 (Homo sapiens) | active
Cc1cc(C(N)=O)ccc1-c1c(-c2ccc(-n3ccnc3)cc2)ccn1CCC(=O)O | Melanocortin receptor 4 (Homo sapiens) | inactive
Cc1cc(C(N)=O)ccc1-c1c(CCC(=O)O)ccn1-c1ccc(-n2ccnc2)cc1 | Melanocortin receptor 4 (Homo sapiens) | inactive

# input for lookup
q: State the result this test recorded for Cc1cc(C(N)=O)ccc1-n1c(CCC(=O)O)ccc1-c1ccc(-n2ccnc2)cc1 .
a: inactive

====

// reported pIC50 for each item listed
test system: A549; experiment: Cytotoxicity against human A549 cells; assay type: functional, cell-based
pIC50: −log10 of the molar value.

SUBSTANCE SMILES | METRIC | RESULT
COc1ccc(-c2ccn(CCC(=O)O)c2-c2ccc(C(N)=O)cc2C)cc1 | pIC50 | < 3.60

Let us examine a further case.
Form field pIC50, entry Cc1cc(C(N)=O)ccc1-c1c(CCC(=O)O)ccn1-c1ccc(-n2ccnc2)cc1 : < 3.60

====

Molecular target: UniProt P21731
Sequence (whole entry): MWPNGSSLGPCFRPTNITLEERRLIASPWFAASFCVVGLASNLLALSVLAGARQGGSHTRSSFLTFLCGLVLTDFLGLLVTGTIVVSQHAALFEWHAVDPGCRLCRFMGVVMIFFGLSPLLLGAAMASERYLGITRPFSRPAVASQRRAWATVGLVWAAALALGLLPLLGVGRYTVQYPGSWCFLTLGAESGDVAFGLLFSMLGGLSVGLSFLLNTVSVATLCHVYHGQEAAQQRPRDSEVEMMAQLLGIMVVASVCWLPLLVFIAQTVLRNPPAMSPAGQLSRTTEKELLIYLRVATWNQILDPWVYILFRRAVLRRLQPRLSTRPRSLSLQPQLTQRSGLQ
Experiment: Inhibition of human recombinant TP receptor at 10 uM by radioligand binding assay
Calls of active or inactive are those of the source. The rule behind the calls is not given here.
Pick one: 1 = active, 0 = inactive

COMPOUND | GROUP LABEL
Cc1cc(C(N)=O)ccc1-c1c(-c2ccc(-n3ccnc3)cc2)ccn1CCC(=O)O | 0
Cc1cc(C(N)=O)ccc1-n1c(CCC(=O)O)ccc1-c1ccc(-n2ccnc2)cc1 [N6022] | 0
Cc1cc(C(N)=O)ccc1-c1c(CCC(=O)O)ccn1-c1ccc(-n2ccnc2)cc1 | 0
COc1ccc(-c2ccn(-c3ccc(C(=O)O)c(O)c3)c2-c2ccc(C(N)=O)cc2C)cc1 | 1

# input for lookup
q: State the result this test recorded for COc1ccc(-c2ccn(-c3ccc(O)c([N+](=O)[O-])c3)c2-c2ccc(C(N)=O)cc2C)cc1 .
a: 1

====

target: Beta-2 adrenergic receptor (Homo sapiens); test: Inhibition of human recombinant beta2 receptor at 10 uM by radioligand binding assay
Active and inactive are the calls of the source. The calls are words filed in the database; no cut-off is given here.
Pick one: TRUE for active, FALSE for inactive

Use these answered entries as a reference point.
SUBSTANCE SMILES | TARGET SYSTEM | GROUP LABEL
Cc1cc(C(N)=O)ccc1-c1c(CCC(=O)O)ccn1-c1ccc(-n2ccnc2)cc1 | Beta-2 adrenergic receptor (Homo sapiens) | FALSE
COc1ccc(-c2ccn(-c3ccc(C(=O)O)c(O)c3)c2-c2ccc(C(N)=O)cc2C)cc1 | Beta-2 adrenergic receptor (Homo sapiens) | TRUE
Cc1cc(C(N)=O)ccc1-n1c(CCC(=O)O)ccc1-c1ccc(-n2ccnc2)cc1 | Beta-2 adrenergic receptor (Homo sapiens) | FALSE
COc1ccc(-c2ccn(-c3ccc(O)c([N+](=O)[O-])c3)c2-c2ccc(C(N)=O)cc2C)cc1 | Beta-2 adrenergic receptor (Homo sapiens) | TRUE

# input for lookup
q: State the result this test recorded for Cc1cc(C(N)=O)ccc1-c1c(-c2ccc(-n3ccnc3)cc2)ccn1CCC(=O)O .
a: FALSE

====

biological target: UniProt P29371; assay: Inhibition of human recombinant NK3 receptor at 10 uM by radioligand binding assay
Sequence (P29371 whole entry): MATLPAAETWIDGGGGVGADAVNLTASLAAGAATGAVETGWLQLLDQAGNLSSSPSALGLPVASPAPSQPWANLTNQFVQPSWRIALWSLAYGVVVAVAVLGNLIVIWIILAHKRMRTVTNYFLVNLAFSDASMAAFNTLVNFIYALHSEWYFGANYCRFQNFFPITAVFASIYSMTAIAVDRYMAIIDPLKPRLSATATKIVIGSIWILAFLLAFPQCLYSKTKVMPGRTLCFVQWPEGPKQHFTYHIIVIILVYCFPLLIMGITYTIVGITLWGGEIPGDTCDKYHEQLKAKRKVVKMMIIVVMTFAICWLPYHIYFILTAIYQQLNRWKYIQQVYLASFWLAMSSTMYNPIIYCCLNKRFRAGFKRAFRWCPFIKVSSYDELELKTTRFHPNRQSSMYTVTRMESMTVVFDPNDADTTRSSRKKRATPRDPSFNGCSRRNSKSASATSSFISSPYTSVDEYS
Active and inactive are the calls of the source. No cut-off for these calls is given here.
Pick one: active, inactive

SUBSTANCE SMILES | GROUP LABEL
COc1ccc(-c2ccn(-c3ccc(C(=O)O)c(O)c3)c2-c2ccc(C(N)=O)cc2C)cc1 | active
COc1ccc(-c2ccn(-c3ccc(O)c([N+](=O)[O-])c3)c2-c2ccc(C(N)=O)cc2C)cc1 | active
Cc1cc(C(N)=O)ccc1-n1c(CCC(=O)O)ccc1-c1ccc(-n2ccnc2)cc1 | inactive
Cc1cc(C(N)=O)ccc1-c1c(-c2ccc(-n3ccnc3)cc2)ccn1CCC(=O)O | inactive

# input for lookup
q: State the result this test recorded for Cc1cc(C(N)=O)ccc1-c1c(CCC(=O)O)ccn1-c1ccc(-n2ccnc2)cc1 .
a: inactive

====

biological target: Sodium-dependent serotonin transporter (Homo sapiens) (UniProt P31645); experiment: Inhibition of human recombinant 5HT transporter at 10 uM by radioligand binding assay
Sequence (P31645 whole entry, looked up): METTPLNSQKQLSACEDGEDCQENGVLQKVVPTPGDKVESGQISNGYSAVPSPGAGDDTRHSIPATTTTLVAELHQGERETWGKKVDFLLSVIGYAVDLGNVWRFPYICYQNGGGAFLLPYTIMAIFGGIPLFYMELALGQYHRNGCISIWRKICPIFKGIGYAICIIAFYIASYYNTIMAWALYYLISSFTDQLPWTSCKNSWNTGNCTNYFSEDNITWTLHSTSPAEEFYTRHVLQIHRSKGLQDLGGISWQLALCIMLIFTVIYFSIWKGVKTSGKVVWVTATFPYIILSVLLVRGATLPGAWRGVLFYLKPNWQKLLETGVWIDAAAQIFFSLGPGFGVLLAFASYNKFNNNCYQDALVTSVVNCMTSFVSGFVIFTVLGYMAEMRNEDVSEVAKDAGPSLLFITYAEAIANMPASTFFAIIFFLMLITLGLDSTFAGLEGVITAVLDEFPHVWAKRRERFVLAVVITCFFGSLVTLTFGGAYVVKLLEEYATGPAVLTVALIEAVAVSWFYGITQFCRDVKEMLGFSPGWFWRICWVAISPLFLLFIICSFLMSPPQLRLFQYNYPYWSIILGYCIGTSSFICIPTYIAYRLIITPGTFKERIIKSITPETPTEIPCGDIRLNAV
Calls of active or inactive are those of the source. The rule behind the calls is not given here.
METRIC: inhibition

The following molecules have reported results that may help.
SUBSTANCE SMILES | METRIC | RESULT
Cc1cc(C(N)=O)ccc1-c1c(-c2ccc(-n3ccnc3)cc2)ccn1CCC(=O)O | inhibition | inactive
COc1ccc(-c2ccn(-c3ccc(O)c([N+](=O)[O-])c3)c2-c2ccc(C(N)=O)cc2C)cc1 | inhibition | Active
Cc1cc(C(N)=O)ccc1-c1c(CCC(=O)O)ccn1-c1ccc(-n2ccnc2)cc1 | inhibition | inactive
Cc1cc(C(N)=O)ccc1-n1c(CCC(=O)O)ccc1-c1ccc(-n2ccnc2)cc1 | inhibition | inactive

Let us examine a further case.
Form field inhibition, entry COc1ccc(-c2ccn(-c3ccc(C(=O)O)c(O)c3)c2-c2ccc(C(N)=O)cc2C)cc1 : Active

====

biological target: Adenosine receptor A3 (Homo sapiens); test: Inhibition of human recombinant A3 receptor at 10 uM by radioligand binding assay
Activity calls are given as the source filed them. The calls are words filed in the database; no cut-off is given here.
Pick one: True = active, False = inactive

Use these answered entries as a reference point.
SUBSTANCE SMILES | GROUP LABEL
Cc1cc(C(N)=O)ccc1-c1c(-c2ccc(-n3ccnc3)cc2)ccn1CCC(=O)O | False
COc1ccc(-c2ccn(-c3ccc(C(=O)O)c(O)c3)c2-c2ccc(C(N)=O)cc2C)cc1 | True
Cc1cc(C(N)=O)ccc1-c1c(CCC(=O)O)ccn1-c1ccc(-n2ccnc2)cc1 | False
COc1ccc(-c2ccn(-c3ccc(O)c([N+](=O)[O-])c3)c2-c2ccc(C(N)=O)cc2C)cc1 | True

# input for lookup
q: State the result this test recorded for Cc1cc(C(N)=O)ccc1-n1c(CCC(=O)O)ccc1-c1ccc(-n2ccnc2)cc1 .
a: False

====

test system: Neuropeptide Y receptor type 1; assay: Inhibition of human recombinant Y1 receptor at 10 uM by radioligand binding assay
Active and inactive are the calls of the source. No cut-off for these calls is given here.
Pick one: 1 (yes) for active, 0 (no) for inactive

Use these answered entries as a reference point.
SUBSTANCE SMILES | GROUP LABEL
COc1ccc(-c2ccn(-c3ccc(O)c([N+](=O)[O-])c3)c2-c2ccc(C(N)=O)cc2C)cc1 | 1 (yes)
COc1ccc(-c2ccn(-c3ccc(C(=O)O)c(O)c3)c2-c2ccc(C(N)=O)cc2C)cc1 | 1 (yes)

q: State the result this test recorded for Cc1cc(C(N)=O)ccc1-c1c(-c2ccc(-n3ccnc3)cc2)ccn1CCC(=O)O .
a: 0 (no)

q: State the result this test recorded for Cc1cc(C(N)=O)ccc1-c1c(CCC(=O)O)ccn1-c1ccc(-n2ccnc2)cc1 .
a: 0 (no)
